# Protocol: In vitro skin diffusion study, vertical Franz diffusion cell, HPLC-ESI-MS of markers
# Format: in vitro ADME, pig
# Condition context: donor: transdermal patch of Example 4.2; pig skin, 37° C., 24 hours; receiving medium 0.9% NaCl
Exercise: state measured percentage by weight of marker in the receiving cell, Transdermal Patch (Test Sample) for each of the compounds provided.

Which measured percentage by weight of marker in the receiving cell, Transdermal Patch (Test Sample) value corresponds to Cc1cc(O)c2c(c1)C(=O)c1cc(O)cc(O)c1C2=O [Emo, Emodin] ? 1.8494 wt %

Which measured percentage by weight of marker in the receiving cell, Transdermal Patch (Test Sample) value corresponds to O=c1c(O)c(-c2ccc(O)cc2)oc2cc(O)cc(O)c12 [Kae, Kaempferol] ? 72.3590 wt %

Which measured percentage by weight of marker in the receiving cell, Transdermal Patch (Test Sample) value corresponds to CC1(C)CC[C@]2(C(=O)O)CC[C@]3(C)C(=CC[C@@H]4[C@@]5(C)CC[C@H](O)C(C)(C)[C@@H]5CC[C@]43C)[C@@H]2C1 [OA, Oleanolic Acid] ? 0.0000 wt %
